System: HepG2
assay overview: Antiproliferative activity against human HepG2 cells assessed as inhibition of cell growth incubated for 48 hrs by MTT assay
Assay type: functional, cell-based
run conditions: HepG2, 48 h
parameter: IC50

> print(dat)
                           molecular.string  test.target  parameter  reported.result
1  CCCCn1c2ccccc2c2cc(CNCCCN(CC)CC)nc(CNCCCN(CC)CC)c21        HepG2       IC50          15.6 µM
2  CCN(CC)CCCNCc1cc2c3ccccc3n(CCCc3ccccc3)c2c(CNCCCN(CC)CC)n1        HepG2       IC50          4.58 µM
3  CCN(CC)CCCNCc1cc2c3ccccc3n(Cc3ccc(F)cc3)c2c(CNCCCN(CC)CC)n1        HepG2       IC50          5.68 µM
4  CCN(CC)CCCNCc1cc2c3ccccc3n(C)c2c(CNCCCN(CC)CC)n1        HepG2       IC50          > 20 µM
5  CCN(CC)CCCNCc1cc2c([nH]c3ccccc32)c(CNCCCN(CC)CC)n1        HepG2       IC50          > 20 µM

Alright, here's another compound for you.
Please provide the recorded IC50 for CCN(CC)CCCNCc1cc2c3ccccc3n(Cc3ccccc3)c2c(CNCCCN(CC)CC)n1 , tested on HepG2.
14.3 µM
